meta.source: patent US12226405B2

Test system: HIF2α-dependent transcription in 786-O-HRE-Luc cells
Assay: In vitro cellular hypoxia response element (HRE) reporter gene assay (RGA) for HIF2α
Assay type: cell-based, human
Details: Homo sapiens, 24 hours incubation
MEASURED_PROPERTY: IC50 (nM)

>>> reported_value("Fc1cccc2c1SCC[C@@]21CN2C=C(C(F)(F)F)C=C(OC(F)F)C2=N1 [Example 65]")
114
>>> reported_value("FC(F)OC1=CC(C(F)(F)F)=CN2C[C@@]3(CCCc4c3ccnc4Cl)N=C12 [Example 36]")
147
>>> reported_value("FC(F)OC1=CC(C(F)(F)F)=CN2C[C@@]3(N=C12)c1ccc(C(F)(F)F)cc1OC[C@@H]3F [Example 61]")
143
>>> reported_value("Fc1c(Br)ccc2c1OC[C@@H](F)[C@@]21CN2C=C(C(F)(F)F)C=C(OC(F)F)C2=N1 [Example 58]")
183
